method: Permeation across symmetric and asymmetric DIBs containing 30% DOPC 70% DOPS, droplet pairs, fluorescence microscopy
Assay type: in vitro ADME
recorded conditions: not told, pH 6, pH 6, donor 100% DOPC, acceptor 30% DOPC 70% DOPS (asymmetric)
experimental endpoint: Papp at 50 µM (×10⁻⁶ cm/s)
Supply the numeric figure in ×10⁻⁶ cm/s, leaving out any unit text.

The measured Papp at 50 µM associated with CC/N=c1\cc2oc3cc(NCC)c(C)cc3c(-c3ccccc3C(=O)OCC)c-2cc1C reads 6.56

====

method: Label-free permeation analysis of droplet pairs by LC-MS
Type: in vitro ADME
recorded conditions: not told, pH 6, pH 6.0, LC-MS, eq 4, sink condition, first two data points, N = 4; read-out: Papp.sink (MS)
experimental endpoint: Papp at 50 µM
# number then unit; no other words

What the record says about CC/N=c1\cc2oc3cc(NCC)c(C)cc3c(-c3ccccc3C(=O)OCC)c-2cc1C : Papp at 50 µM is 9.42 ×10⁻⁶ cm/s

This collection of values is drawn from paper PMC8014892.
